assay: Repeat once-weekly IV dose toxicokinetics in dogs; format: in vivo; conditions: male, dog, in vivo, iv, 0.9 mg/kg, dogs M, 0.9 mg/kg once-weekly IV, Day 0; read-out: T1/2 (converted)
reported endpoint: half-life (h)
Answers are plain numbers, in h.

Challenge: Tell me its half-life given CC1(C)C(=CC=C2CCCC(C=CC3=[N+](CCCCS(=O)(=O)[O-])c4ccc(S(=O)(=O)O)cc4C3(C)C)=C2Oc2ccc(CC(NC(=O)c3ccc(NCc4cnc5nc(N)[nH]c(=O)c5n4)cc3)C(=O)O)cc2)N(CCCCS(=O)(=O)O)c2ccc(S(=O)(=O)O)cc21 (stereo not shown) as the entry.
Response given: 14.8
